assay: Pharmacokinetics after oral administration to mice; type: in vivo, mouse; conditions: mouse, plasma, po, 1000 mg/kg p.o.
parameter: Tmax (h)
Your answer is read as h, so omit the unit and give the number.

Q: Endpoint output: Tmax of Cn1cc(-c2ccc(CN3Cc4cccc(Oc5c(F)cccc5C#N)c4C3=O)cc2)cn1 . Value?
A: 1.7

====

target: M5R (Homo sapiens, UniProt P08912); test: Ca2+ flux assay in CHO-K1 cells expressing human M5R; type: cell-based; design: expressed in transfected cells; host or cells: CHO-K1; conditions: read-out: IP for M5R
Sequence (P08912 whole entry): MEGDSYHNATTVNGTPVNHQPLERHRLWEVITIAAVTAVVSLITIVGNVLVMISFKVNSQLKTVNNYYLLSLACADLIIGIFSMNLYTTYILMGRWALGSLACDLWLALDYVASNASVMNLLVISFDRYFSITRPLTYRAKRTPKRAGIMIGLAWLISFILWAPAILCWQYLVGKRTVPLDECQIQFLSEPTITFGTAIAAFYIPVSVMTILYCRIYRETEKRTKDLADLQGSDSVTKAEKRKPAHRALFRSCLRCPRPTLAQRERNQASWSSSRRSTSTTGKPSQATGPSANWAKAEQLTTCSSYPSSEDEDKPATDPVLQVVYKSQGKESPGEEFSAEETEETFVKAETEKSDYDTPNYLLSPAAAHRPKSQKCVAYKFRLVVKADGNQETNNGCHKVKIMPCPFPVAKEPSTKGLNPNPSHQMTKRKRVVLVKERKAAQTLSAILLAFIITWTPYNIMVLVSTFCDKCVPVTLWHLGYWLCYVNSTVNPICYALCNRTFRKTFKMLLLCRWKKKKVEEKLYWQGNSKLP
pEC50: −log10 of the molar value.
parameter: pEC50

| molecule | parameter | data value |
| --- | --- | --- |
| Cc1c(Cc2ccc(-n3cccn3)cc2)cc2c(c1F)CN([C@H]1COCC[C@@H]1O)C2=O [Compound D] | pEC50 | < 5.00 |

Q: Endpoint output: pEC50 of Cn1cc(-c2ccc(Cc3cc4c(=O)n([C@H]5CCCC[C@@H]5O)cnc4c4ccccc34)cn2)cn1 [Compound C, reference compound] . Value?
A: < 6.00

====

target: human M1Rs (Homo sapiens); test: Ca2+ flux assay in CHO-K1 cells stably expressing human M1R (FLIPR), agonist and PAM mode, operational model fit; assay type: cell-based; conditions: allosteric effect of PAM on signaling efficacy of ACh, operational model
parameter: log β Mean
When you answer, write just the number.

// below: answered compounds
| compound | target or system | log β Mean |
| --- | --- | --- |
| O=c1c2cn(Cc3ccc(-n4cccn4)cc3)c3ccccc3c-2nn1-c1ccccc1F [Compound E, reference compound] | human M1Rs (Homo sapiens) | −0.23 |
| Cn1cc(-c2ccc(Cc3cc4c(=O)n([C@H]5CCCC[C@@H]5O)cnc4c4ccccc34)cn2)cn1 [Compound C, reference compound] | human M1Rs (Homo sapiens) | −0.39 |
| Cn1cc(-c2ccc(CN3Cc4cccc(-c5ccn[nH]5)c4C3=O)cc2)cn1 | human M1Rs (Homo sapiens) | 0.85 |
| Cn1cc(-c2ccc(CN3Cc4cccc(Oc5c(F)cccc5C#N)c4C3=O)cc2)cn1 | human M1Rs (Homo sapiens) | 0.58 |

Q: What reported log β Mean corresponds to Cn1cc(-c2ccc(CN3Cc4cccc(OCCN5CCCCC5)c4C3=O)cc2)cn1 on human M1Rs (Homo sapiens)?
A: 0.87

Q: What reported log β Mean corresponds to Cn1ccc(-c2ccc(CN3Cc4cccc(O[C@H]5CCCC[C@@H]5O)c4C3=O)cc2)n1 on human M1Rs (Homo sapiens)?
A: 0.13

====

molecular target: human M1Rs (Homo sapiens, UniProt P11229); assay: Ca2+ flux assay in CHO-K1 cells stably expressing human M1R (FLIPR), agonist and PAM mode, operational model fit; format: cell-based; settings: without ACh; mean of three independent experiments; read-out: M1 agonist activity pEC50 Mean (converted)
Sequence (P11229 whole entry): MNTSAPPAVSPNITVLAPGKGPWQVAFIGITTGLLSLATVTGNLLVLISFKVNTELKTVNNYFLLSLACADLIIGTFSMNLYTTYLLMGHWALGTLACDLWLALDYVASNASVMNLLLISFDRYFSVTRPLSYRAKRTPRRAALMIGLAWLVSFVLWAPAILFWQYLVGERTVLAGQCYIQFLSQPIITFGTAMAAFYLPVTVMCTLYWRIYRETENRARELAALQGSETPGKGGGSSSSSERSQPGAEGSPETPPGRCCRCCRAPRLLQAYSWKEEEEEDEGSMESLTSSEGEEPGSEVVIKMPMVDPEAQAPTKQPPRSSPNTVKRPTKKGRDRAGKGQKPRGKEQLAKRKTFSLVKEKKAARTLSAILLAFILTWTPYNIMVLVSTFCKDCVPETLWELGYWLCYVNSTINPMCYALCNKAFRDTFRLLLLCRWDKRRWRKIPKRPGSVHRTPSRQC
Doc: threshold 0.2 µM (exclusive). Items with EC50 beneath it return criterion met; others return criterion not met.

Please review the entries below; each comes with its answer.
| compound | target or system | label class |
| --- | --- | --- |
| Cn1cc(-c2ccc(CN3Cc4cccc(-c5ccn[nH]5)c4C3=O)cc2)cn1 | human M1Rs (Homo sapiens, UniProt P11229) | criterion not met |
| Cn1cc(-c2ccc(CN3Cc4cccc(OCCN5CCCCC5)c4C3=O)cc2)cn1 | human M1Rs (Homo sapiens, UniProt P11229) | criterion not met |
| Cn1cc(-c2ccc(CN3Cc4cccc(Oc5c(F)cccc5C#N)c4C3=O)cc2)cn1 | human M1Rs (Homo sapiens, UniProt P11229) | criterion not met |
| Cn1cc(-c2ccc(Cc3cc4c(=O)n([C@H]5CCCC[C@@H]5O)cnc4c4ccccc34)cn2)cn1 [Compound C, reference compound] | human M1Rs (Homo sapiens, UniProt P11229) | criterion met |
| O=c1c2cn(Cc3ccc(-n4cccn4)cc3)c3ccccc3c-2nn1-c1ccccc1F [Compound E, reference compound] | human M1Rs (Homo sapiens, UniProt P11229) | criterion not met |

# input for lookup
Q: Say whether its EC50 is strictly beneath 0.2 µM. Entry: Cn1ccc(-c2ccc(CN3Cc4cccc(O[C@H]5CCCC[C@@H]5O)c4C3=O)cc2)n1
A: criterion met
